Test system: UDP-N-acetylbacillosamine N-acetyltransferase PglD (Campylobacter jejuni)
Assay: C. jejuni PglD acetyltransferase inhibitors, primary screen, biochemical, DTNB colorimetric, single point (AID 602405)
Details: purified PglD enzyme, DTNB colorimetric CoA detection; at 12.5 µM; active compounds read high
The campaign covered roughly 360,000 compounds. About 350 (0.097%) were called active. Shown is part of a subset that was picked to be rich in actives.
quantity-measured: inhibition (%)
Give bare numbers, in %.

Before answering, review these 3 worked examples.
[
  {
    "chem-smiles": "C[C@H]1CN([C@@H](C)CO)C(=O)Cc2cc(NC(=O)c3ccncc3)ccc2O[C@@H]1CN(C)C(=O)Nc1ccccc1",
    "inhibition / %": 3.86
  },
  {
    "chem-smiles": "COc1cccc(S(=O)(=O)N[C@H]2C=C[C@H](CC(=O)NC3Cc4ccccc4C3)O[C@@H]2CO)c1",
    "inhibition / %": -1.14
  },
  {
    "chem-smiles": "COCC#Cc1ccc2c(c1)O[C@@H](CN(C)C(C)=O)[C@H](C)CN([C@H](C)CO)S2(=O)=O",
    "inhibition / %": 2.69
  }
]

Please turn your attention to the following entry.
Recall the recorded inhibition for `O=C(C[C@H]1C=C[C@H](NC(=O)Nc2cc(F)ccc2F)[C@H](CO)O1)Nc1ccccc1` with UDP-N-acetylbacillosamine N-acetyltransferase PglD (Campylobacter jejuni) and state it. -2.58

====

Tested on: UDP-N-acetylbacillosamine N-acetyltransferase PglD (Campylobacter jejuni)
Assay: C. jejuni PglD acetyltransferase inhibitors, primary screen, biochemical, DTNB colorimetric, single point (AID 602405)
Conditions: purified PglD enzyme, DTNB colorimetric CoA detection; at 12.5 µM
The whole screen tested about 360,000 compounds, of which about 350 (0.097%) were called active. Rule as the data show it: active = inhibition above about 16% (passing the limit was not always enough); inconclusive = no clear call, values can overlap the other calls; inactive = below that. Many of the other results were omitted from the sample, so actives are more common in it than they were.
Your response should consist of one outcome taken from active, inactive

Below, 8 compounds whose answers are already recorded.
[
  {
    "chem-smiles": "O=C(C[C@@H]1CC[C@H](NC(=O)C2CC2)[C@H](CO)O1)NCc1ccccc1Cl",
    "assigned-label": "inactive"
  },
  {
    "chem-smiles": "CC(C)(C)c1ccc(CN2C(=O)c3ccccc3S2(=O)=O)cc1",
    "assigned-label": "active"
  },
  {
    "chem-smiles": "COc1ccc(CNC(=O)CN2C(=O)c3ccccc3S2(=O)=O)cc1",
    "assigned-label": "inactive"
  },
  {
    "chem-smiles": "CC(C)C(=O)Nc1ccc2c(c1)C(=O)N(C)[C@@H]1CC[C@@H](CC(=O)NCCc3ccccc3)O[C@H]1CO2",
    "assigned-label": "inactive"
  },
  {
    "chem-smiles": "CCCNC(=O)N1C[C@@H]2[C@H](c3ccccc31)[C@@H](CO)N2C(=O)NC(C)C",
    "assigned-label": "inactive"
  },
  {
    "chem-smiles": "Cc1noc(C)c1S(=O)(=O)N(C)C[C@@H]1Oc2ccc(NC(=O)C3CC3)cc2CC(=O)N([C@@H](C)CO)C[C@@H]1C",
    "assigned-label": "inactive"
  },
  {
    "chem-smiles": "O=C1c2ccccc2S(=O)(=O)N1Cc1c(F)cccc1Cl",
    "assigned-label": "inactive"
  },
  {
    "chem-smiles": "COc1ccc(NC(=O)C2=NNC(=O)CC2)cc1S(=O)(=O)N1CCCCC1",
    "assigned-label": "active"
  }
]

Attention now turns to another entry.
Outcome? `C[C@H]1CN([C@@H](C)CO)C(=O)c2cc(NC(=O)Cn3cnnn3)ccc2O[C@H]1CN(C)S(C)(=O)=O` inactive

====

System: UDP-N-acetylbacillosamine N-acetyltransferase PglD (Campylobacter jejuni)
Assay: C. jejuni PglD acetyltransferase inhibitors, primary screen, biochemical, DTNB colorimetric, single point (AID 602405)
Conditions: purified PglD enzyme, DTNB colorimetric CoA detection; at 12.5 µM; active compounds read high
The campaign covered roughly 360,000 compounds. About 350 (0.097%) were called active. Many of the other results were omitted from the sample, so actives are more common in it than they were.
quantity-measured: inhibition (%)
Give bare numbers, in %.

Observe how each entry below is paired with its result.
[
  {
    "molecule": "CCC(=O)Nc1ccc2c(c1)C(=O)N(C)[C@@H]1CC[C@@H](CC(=O)N[C@@H](C)c3ccccc3)O[C@@H]1CO2",
    "target-entity": "UDP-N-acetylbacillosamine N-acetyltransferase PglD (Campylobacter jejuni)",
    "quantity-measured": "inhibition",
    "experimental-value": 2.31
  },
  {
    "molecule": "O=C(c1ccccc1)N1C[C@H]2[C@@H](c3ccccc31)[C@H](CO)N2Cc1ccccc1F",
    "target-entity": "UDP-N-acetylbacillosamine N-acetyltransferase PglD (Campylobacter jejuni)",
    "quantity-measured": "inhibition",
    "experimental-value": -1.39
  },
  {
    "molecule": "C[C@@H]1CN([C@H](C)CO)C(=O)Cc2cc(NC(=O)C3CCCCC3)ccc2O[C@@H]1CN(C)S(C)(=O)=O",
    "target-entity": "UDP-N-acetylbacillosamine N-acetyltransferase PglD (Campylobacter jejuni)",
    "quantity-measured": "inhibition",
    "experimental-value": 56.5
  },
  {
    "molecule": "C=CCOC(=O)C1=C(C)NC(SCC(=O)OCC)=C(C#N)C1c1ccc(C)cc1 (stereo not drawn)",
    "target-entity": "UDP-N-acetylbacillosamine N-acetyltransferase PglD (Campylobacter jejuni)",
    "quantity-measured": "inhibition",
    "experimental-value": 25.9
  },
  {
    "molecule": "O=C(CC1CC1)Nc1ccc2c(c1)[C@@H]1C[C@@H](CC(=O)NC3CCCCC3)O[C@@H](CO)[C@@H]1O2",
    "target-entity": "UDP-N-acetylbacillosamine N-acetyltransferase PglD (Campylobacter jejuni)",
    "quantity-measured": "inhibition",
    "experimental-value": 0.63
  }
]

# batch: return inhibition for each of the 8 molecules below
1. COc1cccc(CNC(=O)C[C@@H]2C=C[C@@H](NC(=O)C3CCC3)[C@@H](CO)O2)c1
2. C[C@@H]1CN([C@H](C)CO)C(=O)c2cc(C#Cc3ccccn3)cnc2O[C@H]1CN(C)CC1CCOCC1
3. CNC(=O)C[C@@H]1CC[C@@H]2[C@H](COC[C@@H](O)CN2S(=O)(=O)c2ccccc2Cl)O1
4. COc1ccccc1S(=O)(=O)N1CC[C@@H]2[C@H](CO)Nc3ccc(-c4ccccc4F)cc3[C@@H]21
5. C[C@H](CO)N1C[C@H](C)[C@H](CN(C)S(=O)(=O)c2ccccc2)Oc2cc(Br)ccc2S1(=O)=O
6. O=C(NC[C@@H]1[C@H](c2ccccc2)[C@H](CO)N1CC1CCCC1)c1cccnc1
7. COc1ccc(NC(=O)Nc2ccc3c(c2)C(=O)N([C@@H](C)CO)C[C@@H](C)[C@H](CN(C)Cc2ccc(Cl)c(Cl)c2)O3)cc1
8. C[C@@H]1CN([C@@H](C)CO)C(=O)c2cc(N(C)C)ccc2O[C@@H](C)CCCCO[C@H]1CN(C)C(=O)CCCN(C)C

[-2.99, 14.4, 1.56, 2.37, -0.169, 1.03, 6.96, 2.35]

====

Hi there, I'd appreciate the recorded inhibition for every entry that follows.
Test system: UDP-N-acetylbacillosamine N-acetyltransferase PglD (Campylobacter jejuni)
Assay: C. jejuni PglD acetyltransferase inhibitors, primary screen, biochemical, DTNB colorimetric, single point (AID 602405)
Conditions: purified PglD enzyme, DTNB colorimetric CoA detection; at 12.5 µM; active compounds read high
Screen size: about 360,000 compounds; about 350 (0.097%) were called active. The sample as a whole holds a higher share of actives than the screen did.
One number for each entry, in %.

[
  {
    "chem-smiles": "CN1c2ccc(-c3ccccc3F)cc2[C@H]2[C@H](CCN2C(=O)Nc2cc(F)ccc2F)[C@H]1CO",
    "target-entity": "UDP-N-acetylbacillosamine N-acetyltransferase PglD (Campylobacter jejuni)",
    "readout-unit": "%",
    "experimental-value": -0.933
  },
  {
    "chem-smiles": "CN1C(=O)c2cc(NC(=O)C3CC3)ccc2OC[C@@H]2O[C@H](CC(=O)NCC3CCCCC3)CC[C@@H]21",
    "target-entity": "UDP-N-acetylbacillosamine N-acetyltransferase PglD (Campylobacter jejuni)",
    "readout-unit": "%",
    "experimental-value": 0.676
  }
]

Batch of 2 compounds: report inhibition for each.
1. COc1cccc(S(=O)(=O)N2CCCCN3[C@H](CO)[C@H](c4ccc(-c5ccncc5)cc4)[C@H]3C2)c1
2. CCCNC(=O)C[C@H]1C[C@@H]2c3cc(NC(=O)c4ccc5c(c4)OCO5)ccc3O[C@@H]2[C@@H](CO)O1

[2.87, -7.26]
